Molecular target: T1, human RXFP1 (human, UniProt Q9HBX9 1-757)
T1 sequence (looked up): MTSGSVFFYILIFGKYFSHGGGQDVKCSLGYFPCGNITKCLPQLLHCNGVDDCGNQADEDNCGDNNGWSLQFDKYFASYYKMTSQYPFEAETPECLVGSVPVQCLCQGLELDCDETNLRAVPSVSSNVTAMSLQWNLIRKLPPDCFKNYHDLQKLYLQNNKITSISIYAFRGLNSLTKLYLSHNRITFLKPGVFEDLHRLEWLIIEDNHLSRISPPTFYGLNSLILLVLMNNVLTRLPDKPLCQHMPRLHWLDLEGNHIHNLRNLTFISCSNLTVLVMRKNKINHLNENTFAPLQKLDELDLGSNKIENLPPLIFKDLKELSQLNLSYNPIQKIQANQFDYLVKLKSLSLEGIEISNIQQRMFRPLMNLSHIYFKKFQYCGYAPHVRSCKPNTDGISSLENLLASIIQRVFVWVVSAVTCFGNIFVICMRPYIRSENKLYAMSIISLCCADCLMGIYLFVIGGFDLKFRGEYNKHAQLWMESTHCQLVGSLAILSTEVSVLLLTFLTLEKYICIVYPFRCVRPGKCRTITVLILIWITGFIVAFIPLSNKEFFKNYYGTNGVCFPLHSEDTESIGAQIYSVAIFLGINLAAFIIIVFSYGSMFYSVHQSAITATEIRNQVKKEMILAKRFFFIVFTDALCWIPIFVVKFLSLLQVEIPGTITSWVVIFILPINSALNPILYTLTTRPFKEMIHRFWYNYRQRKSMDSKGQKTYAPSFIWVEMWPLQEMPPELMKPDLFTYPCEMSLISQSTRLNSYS
Test: cell-based or functional assay
// Functional Assay Raw EC50 Values [ng/mL]; cAMP increase in THP-1 cells, 11/5/2010 lookup, one value per entry
# output: bare number, implied unit ng/mL

Worked examples, 2 binders total:
- binder: "RLX-A-AR18-20KPEG (ligand, not fully specified; para-acetylphenylalanine (pAF) at position 18 of the A chain, 20K PEGylated) chain 1: QLYSALANKCCHVGCTKXSLARFC chain 2: ASWMEEVIKLCGRELVRAQIAICGMSTWS"
  test result: 68
- binder: "RLX-A-AV13-20KPEG (ligand, not fully specified; para-acetylphenylalanine (pAF) at position 13 of the A chain, 20K PEGylated) chain 1: QLYSALANKCCHXGCTKRSLARFC chain 2: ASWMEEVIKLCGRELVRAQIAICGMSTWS"
  test result: 56

In the following, a different binder is considered.
Name the reported Functional Assay Raw EC50 Values [ng/mL]; cAMP increase in THP-1 cells, 11/5/2010 value associated with the binder RLX-A-AQ1-20KPEG (ligand, pACF (para-acetylphenylalanine) at position 1 of the A chain, linked to a 20 kDA PEG via an oxime linkage) chain 1: XLYSALANKCCHVGCTKRSLARFC chain 2: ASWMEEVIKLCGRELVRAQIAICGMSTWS
38
